Tested on: MS2 coat protein
Test: apparent KD of MS2 coat protein; designed switch direction (-1 OFF switch, 1 ON switch): 1; higher = weaker reporter binding
Conditions: input ligand: microRNA oligo, concentration not stated
measured.endpoint: apparent KD of MS2 coat protein
# output: numeric value plus its unit

# input Write down measured apparent KD of MS2 coat protein (MS2 coat protein) for this sequence. AUUUUUUAUGCAGGAUAUGAUUAACAUGAGGAUCACCCAUGUGGUGUUGUGAGUAAGGAGAGUGAUCAGAAGGGCAUUUUUUUU [JMF's solution 68] (Eterna round: R96, puzzle: Same State NG 2)
# output 318 nM

# input Provide apparent KD of MS2 coat protein, tested on MS2 coat protein, for AUUAUACAUGAGGAUCACCCAUGUAAUUAAUUAAUUAAGAUCAAGGAUAUCAGCUCGAUUAGAGCUGAGAAGGUGAUCACAUGU [SSNG3/20-B2] (Eterna round: R96, puzzle: Same State NG 3) .
# output 170 nM

# input Give apparent KD of MS2 coat protein for ACAUGAGGAUCACCCAUGUAGGCUCAGGAAACUGUGCCACAUGAGGAUAUGGAUCCUAAUUGGAUCCAGAAGGCAUGAUUUAUU [Fiskers NG3ss - 21] (Eterna round: R96, puzzle: Same State NG 3) tested on MS2 coat protein.
# output 1240 nM

# input Look up and report apparent KD of MS2 coat protein, with MS2 coat protein as system, for UUGAAGAAUUAAGGAUAUUGAAUACAUAUGUUUAACAUGAGGAUCACCCAUGUGGGUUGCGGUAUCGAGAAGGUAAAAUAAUAG [Mat - Same State NG 2 - JL mod - D4] (Eterna round: R96, puzzle: Same State NG 2)
# output 91.8 nM

# input Lab note: MS2 coat protein assay, enter apparent KD of MS2 coat protein for GCUAGGAAUUAAGCCAACAUGAGGAUCACCCAUGUAUGUUGGUAGGAUAUCGUUUGCAAAGCAAACGAGAAGGGCUAACCUAGC [Mat - Same State NG 3 - JL Mod - D72] (Eterna round: R96, puzzle: Same State NG 3) here
# output 55.8 nM

# input Identify measured apparent KD of MS2 coat protein obtained with MS2 coat protein for GUUACAUGAGGAUCACCCAUGUAUGUGUGGGAGUAAGUGACUUAGGAUAUCUAAUAUUUAAAUUAAGAGAAGGAAGAUUGUUGU [JMF's solution 5] (Eterna round: R96, puzzle: Same State NG 3) .
# output 131 nM
